# System Tested: DN-III quality control recombinant protein (produced by Fapon Biotech InC.) (dengue virus)
# Method: BLI, AMC sensor, antibody captured
Endpoint Name: kon (M⁻¹ s⁻¹)
Numbers only, in M⁻¹ s⁻¹.

Please state, for each entry, its recorded kon.
1. Mutation 1-10 (antibody, V domains shown) VH: EVQLQQSGTELVRPGALVKLSCKASGFNIKDYYIHWVKQRPRQGLEWIGWIDPENGKTIYDPKFQDKASITSDTSTNTAYLQLRSLTSEDTAVYYCVSAYFRFVYWGQGTLVTVSA VL: QIVLTQSPAIMSAFPGERVTMTCSASTSVRYMYWHQQKPGSSPRLLIYDTSNLASGVPVRFSGSGSGTSYSLTISRDEAMDAATYYCQQWSSYPRTFGGGTKLEIKR
2. Mutation 1-37 (antibody, V domains shown) VH: EVQLQQSGTELVRPGALVKLSCKASGFNIKDYYIHWVKQRPRQGLEWIGWIDPENGKTLYDPKFQDKASITSDTSTNTAYLQLRSLTSEDTAVYYCVSAYYRFVYWGQGTLVTVSA VL: QIVLTQSPAIMSAFPGERVTMTCSASTSVRYMYWHQQKPGSSPRLLIYDTSNVASGVPVRFSGSGSGTSYSLTISRDEAMDAATYYCQQWSSTPRTFGGGTKLEIKR
3. Mutation 1-30 (antibody, V domains shown) VH: EVQLQQSGTELVRPGALVKLSCKASGFNIKDYYVHWVKQRPRQGLEWIGWIDPENGKTIYDPKFQDKASITSDTSTNTAYLQLRSLTSEDTAVYYCVTAYFRFVYWGQGTLVTVSA VL: QIVLTQSPAIMSAFPGERVTMTCSASSSVRYMYWHQQKPGSSPRLLIYDTSNIASGVPVRFSGSGSGTSYSLTISRDEAMDAATYYCQQWSSYPRTFGGGTKLEIKR

Given back:
1. 36900
2. 48500
3. 37600
